Molecular target: human CD33 (human, UniProt P20138 18-364)
Sequence (P20138 18-364): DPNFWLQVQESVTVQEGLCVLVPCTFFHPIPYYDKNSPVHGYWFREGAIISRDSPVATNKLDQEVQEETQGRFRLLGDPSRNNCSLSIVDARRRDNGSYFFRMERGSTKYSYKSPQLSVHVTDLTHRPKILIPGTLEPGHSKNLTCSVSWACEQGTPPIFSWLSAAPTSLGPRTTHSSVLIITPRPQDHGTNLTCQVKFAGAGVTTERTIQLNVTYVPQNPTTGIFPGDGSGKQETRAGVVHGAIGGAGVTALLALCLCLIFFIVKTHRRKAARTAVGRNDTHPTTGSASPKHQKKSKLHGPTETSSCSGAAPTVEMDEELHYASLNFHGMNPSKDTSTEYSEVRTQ
Test: cell-based or functional assay
condition met if Percent CD33 Surface Expression, Monocyte % CD33 is below 40%. condition not met if not; exact matches included in condition not met.

| BINDER | CLASS |
| --- | --- |
| C-35 (antibody, V domains shown, human IgG1) VH: QLQLQESGPGLVKPSETLSLTCTVSGGSISSSSYAWGWIRQPPGKGLEWIGNIYYSGSTYYNPSLKSRVTISVDTSKNQFSLKLSSVTAADTAVYYCARAGYRSPSGFDYWGQGTLVTVSS VL: DIQMTQSPSSVSASVGDRVTITCRASQGISSWLAWYQQKPGKAPKLLIYAASNLQSGVPSRFSGSGSGTDFTLTISSLQPEDFATYYCQQGNAHPTFGGGTKVEIK | condition met |

Q) I wonder whether C-33 (antibody, V domains shown, human IgG1) VH: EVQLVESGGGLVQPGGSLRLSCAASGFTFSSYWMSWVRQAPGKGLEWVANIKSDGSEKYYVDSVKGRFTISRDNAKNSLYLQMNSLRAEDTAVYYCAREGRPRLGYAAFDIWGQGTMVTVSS VL: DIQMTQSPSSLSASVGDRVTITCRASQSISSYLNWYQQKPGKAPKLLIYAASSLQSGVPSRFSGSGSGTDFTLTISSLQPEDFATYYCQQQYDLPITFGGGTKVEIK has Percent CD33 Surface Expression, Monocyte % CD33 below 40%. Can you tell?
A) condition not met

Q) I wonder whether C-34 (antibody, V domains shown, human IgG1) VH: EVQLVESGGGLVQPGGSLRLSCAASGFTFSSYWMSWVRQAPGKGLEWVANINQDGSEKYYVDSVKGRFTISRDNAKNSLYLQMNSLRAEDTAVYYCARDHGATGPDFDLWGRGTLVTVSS VL: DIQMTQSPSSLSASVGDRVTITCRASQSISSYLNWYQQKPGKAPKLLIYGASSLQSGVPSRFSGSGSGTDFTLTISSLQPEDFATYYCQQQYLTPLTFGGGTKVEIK has Percent CD33 Surface Expression, Monocyte % CD33 below 40%. Can you tell?
A) condition not met

Q) I wonder whether C-64 (antibody, V domains shown, human IgG1) VH: QVQLVQSGAEVKKPGSSVKVSCKASGGTFSSLAISWVRQAPGQGLEWMGGIIPIFGTANYAQKFQGRVTITADESTSTAYMELSSLRSEDTAVYYCARGTFYSDELFDYWGQGTLVTVSS VL: DIQMTQSPSSVSASVGDRVTITCRASQGISSWLAWYQQKPGKAPKLLIYAASSLQSGVPSRFSGSGSGTDFTLTISSLQPEDFATYYCQQENSYPLTFGGGTKVEIK has Percent CD33 Surface Expression, Monocyte % CD33 below 40%. Can you tell?
A) condition met
